Each recorded value in this set is attributed to PubChem BioAssay (NCATS).

assay: qHTS for Antimalaria activity screened against the NCATS CANVASS Library (AID 1347380); note: nearly all actives have a fitted effect of over 40% in size; conditions: P. falciparum Dd2 growth, SYBR Green fluorescence, 72 h; series mostly up to 28.7 µM
Records with an inconclusive call do not appear. Active and inactive are the calls of the source. Calls come from the whole dose curve; as a rule, active = well fitted cell-killing curve with a large enough effect; inconclusive = small, poorly fitted or top-dose-only effect, or effect the other way; inactive = no such curve, though single readings can be large or run the other way. Bridge positions count the residues as written; N and C are the ends. Square brackets hold non-standard residues; d marks the D form. Side chains are listed from the residue outwards. Peptide text beside a SMILES is read from it. * marks the point of attachment. Phg(4-OMe) = COc1ccc([C@H](N)C(=O)O)cc1; d(aIle) = CC[C@H](C)[C@@H](N)C(=O)O; d(aThr) = C[C@@H](O)[C@@H](N)C(=O)O; NMeF = CN[C@@H](Cc1ccccc1)C(=O)O; Isobutyryl = CC(C)C(=O)*
Allowed answers: active, inactive

Prompt: Could you kindly confirm the outcome this assay logged for `C/C(=C\[C@@H](C)CC/C=C/CC/C=C/C(=O)O)[C@H](O)[C@H](C)C(=O)CCCC1CC(=O)NC(=O)C1` ?
Completion: inactive

Prompt: Which outcome was entered for the molecule `CC(=O)c1c(C)cc2c(c1O)C(=O)c1c(O)cc(O)cc1C2=O` in this test?
Completion: inactive

Prompt: Query: recorded result category for `C/C=C/c1cc2c(c(=O)o1)C(=O)[C@@H](O)[C@H](C)O2` in this test
Completion: inactive

Prompt: Check the results log: what was the call for `COc1cc2oc3ccccc3c(=O)c2cc1OC` ?
Completion: active

Prompt: In this assay, the call recorded for `COc1cc(O)c(C(=O)[C@@H]2[C@H](CC=C(C)C)C(C)=CC[C@H]2c2ccccc2)c(O)c1` was what?
Completion: active

Prompt: Check the results log: what was the call for O=C1OC(CCO)c2cccc(O)c21 (configuration not stated) ?
Completion: inactive

Prompt: Status in this test for COc1cc2c(cc1OC)[C@@H](c1ccc3c(c1)OCO3)C(C)C(C)C2=O (some centres not stated) ?
Completion: inactive

Prompt: Assay outcome for `C[C@H]1C=C[C@H]2CCCC[C@@H]2[C@H]1C(=O)[C@H]1CC2=C(C(=O)O)CCN2C1=O` : what was it?
Completion: inactive

Prompt: Look up the recorded call for `C=C[C@]1(C)CC[C@@H]([C@H](C)C(=O)CC=C(C)C)O1` in this test.
Completion: inactive

Prompt: # lookup: test call for `C/C=C(/C)c1c(Cl)c(OC)c(C)c2c1Oc1c(Cl)c(O)c(Cl)c(C)c1C(=O)O2`
Completion: inactive

Prompt: # fetch the recorded call for C=C1C[C@H]2O[C@@H]3[C@@H]4[C@H](CC[C@@](C)(O)[C@@H]42)[C@H](C)COC3(C)[C@@H](OC(=O)CCCCCCC)C[C@H]1O (some centres not stated) here
Completion: active

Prompt: # fetch the recorded call for `C[C@]12CC[C@]3(C1)[C@H](CC2=O)C[C@@H](OC(=O)c1ccccc1)[C@H]1[C@](C)(C(=O)O)CCC[C@@]13C` here
Completion: active

Prompt: Would you mind telling me which call this test gave `C/C=C(/C)c1c(Cl)c(O)c(C)c2c1Oc1c(Cl)c(O)c(Cl)c(C)c1C(=O)O2` ?
Completion: inactive

Prompt: Lab log entry: `CC(C)=CCC/C(C)=C/Cc1cc([C@@H]2CC(=O)c3c(cc(O)c(CC=C(C)C)c3O)O2)ccc1O` — outcome as called in the assay?
Completion: active

Prompt: Which result was noted for this molecule in the test: CCC(C)=C1OC(=O)[C@H](C)[C@H](O)[C@H](Cc2cccnc2)NC(=O)C(NC(=O)c2ncccc2O)C(C)OC1=O (some centres not stated)
Completion: inactive

Prompt: Entry O=c1cc(-c2ccc(O)cc2)oc2cc(O)c([C@@H]3OC(CO)[C@H](O)[C@@H](O)[C@H]3O)c(O)c12 (some centres not stated) : call = ?
Completion: inactive

Prompt: I'd appreciate the recorded outcome for CC[C@H](C)[C@H]1NC(=O)[C@@H](NC(=O)C(C)C)[C@@H](C)OC(=O)[C@H](COC(=O)CNC(C)=O)NC(=O)[C@@H]([C@@H](C)O)NC(=O)[C@H](Cc2ccccc2)N(C)C(=O)[C@H](c2ccc(OC)cc2)NC1=O (Isobutyryl-T[d(aIle)][Phg(4-OMe)][NMeF][d(aThr)]S([Gly-Ac]); ester 1-C) from this test.
Completion: inactive

----------
assay: Stat Signaling Pathway (AID 446); conditions: ME-180 (cervical carcinoma) SIE beta-lactamase reporter, IL-6 stimulated, 5 h; at 7.69 µM (top of the series) unless noted;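 note: ME-180 cervical cancer cells given 40 pM IL-6 alongside compound; SIE-controlled beta-lactamase reporter measured as 460/530 nm FRET emission ratio; % is set by controls: 0 for no effect and ±100 for the full control effect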
Results filed as inconclusive are left out. Calls of active or inactive are those of the source. Calls follow the shape of the dose curve; as a rule, active = well fitted curve in either direction with a large enough effect (not every such curve was filed as active); inconclusive = small, poorly fitted or top-dose-only effect, or another doubt; inactive = flat fitted curve, though single readings scatter.
metric: activity, negative = inhibition

Prompt: Could you please provide reported activity, negative = inhibition for `Cc1cnc(CNc2ncncc2-c2cccnc2)cn1` ? Thanks!
Completion: 0.806% (inactive)

Prompt: Supply reported activity, negative = inhibition belonging to this compound: `O=c1c(CCc2ccccc2)nc2cnc(N3CCNCC3)nc2n1CCc1ccccc1`
Completion: 16.4% (inactive)

Prompt: Could you please provide reported activity, negative = inhibition for `COc1ccc(NC(=O)N2CC3(CCN(C(=O)c4cccn4C)CC3)C2)cc1` ? Thanks!
Completion: -11.3% (inactive)

Prompt: Specify reported activity, negative = inhibition for the compound shown: `O=C(c1csnn1)N1CCC[C@@]2(CCN(Cc3nccs3)C2)C1`
Completion: -2.25% (inactive)

Prompt: Supply measured activity, negative = inhibition of `CCNc1ncc2nc(-c3ccc(Cl)cc3)c(=O)n(CCC#N)c2n1` in your reply.
Completion: 14.5% (inactive)

Prompt: Tell me activity, negative = inhibition reported for `CN(C)C(=O)c1ccc(-c2cncnc2NCCc2cnc[nH]2)cc1`
Completion: -26.8% (inactive)

Prompt: Supply activity, negative = inhibition value. Item: `c1cncc(CNc2cc(-c3ccc4c(c3)OCO4)ncn2)c1`
Completion: 3.19% (inactive)

Prompt: Consider the compound `COCC(=O)N1CCC2(CC1)CCN(C(=O)Nc1cccc(C#N)c1)CC2` . State its measured activity, negative = inhibition.
Completion: -4.23% (inactive)

Prompt: Complete the entry with activity, negative = inhibition for `O=c1c(-c2cccs2)nc2cncnc2n1Cc1ccccc1`
Completion: 7.21% (inactive)

Prompt: # return recorded activity, negative = inhibition for input `COc1ccc2c(c1)c(CC(=O)O)c(C)n2Cc1ccc(F)cc1`
Completion: 11.9% [at 38 µM] (inactive)

Prompt: Respond only with activity, negative = inhibition recorded for `CCNc1ncc2nc(C)c(=O)n(C3CC3)c2n1`
Completion: -2.73% (inactive)

----------
biological target: Glucocorticoid receptor (Homo sapiens); assay: GR-GFP Redistribution (AID 450); conditions: U2OS GR-GFP nuclear translocation, laser cytometry, 2 h; note: potency is the fitted concentration of half-maximal effect
Activity calls are given as the source filed them.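 How the source made its calls: active means compounds whose dose series gives a full or clear partial fitted curve of increased nuclear translocation; inconclusive means weak partial curve or effect only at the top dose; inactive means no dose-dependent translocation response.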
For each of the compounds below, state its Potency.

Prompt: Find the measured Potency of `COCCn1c(=O)c(-c2cccc(C#N)c2)nc2cnc(Oc3ccccc3)nc21` with Glucocorticoid receptor (Homo sapiens) as test system.
Completion: > 9.22 µM (inactive)

Prompt: Given `COc1ccc(-c2nc3cnc(Oc4cccc(Cl)c4)nc3n(CCC#N)c2=O)cc1` , report its Potency on Glucocorticoid receptor (Homo sapiens).
Completion: > 9.22 µM (inactive)

Prompt: # return Potency for `COCCn1c(=O)c(-c2cccc(C#N)c2)nc2cnc(N(C)C)nc21` , test system: Glucocorticoid receptor (Homo sapiens)
Completion: > 9.22 µM (inactive)

Prompt: Write down measured Potency (Glucocorticoid receptor (Homo sapiens)) for this compound. `O=c1c(-c2ccccc2)nc2cnc(N3CCOCC3)nc2n1C1CC1`
Completion: > 9.22 µM (inactive)

Prompt: # return Potency of `CN(C)c1ncc2ncc(=O)n(C3CC3)c2n1` (system: Glucocorticoid receptor (Homo sapiens))
Completion: > 9.22 µM (inactive)

Prompt: Under Glucocorticoid receptor (Homo sapiens): report Potency of `CCNc1ncc2nc(-c3ccc(F)cc3)c(=O)n(CCOC)c2n1` .
Completion: > 9.22 µM (inactive)

Prompt: Give Potency only, for `c1ccc2c(NC3CCNCC3)nc(-c3ccoc3)nc2c1` , using Glucocorticoid receptor (Homo sapiens) data.
Completion: > 46 µM (inactive)

Prompt: # return Potency for `Cc1nc2cnc(N3CCN(C)CC3)nc2n(Cc2cccs2)c1=O` , test system: Glucocorticoid receptor (Homo sapiens)
Completion: > 9.22 µM (inactive)

Prompt: Fill in Potency for `COCCn1c(=O)c(-c2ccccc2)nc2cnc(Oc3ccc(OC)cc3)nc21` tested with Glucocorticoid receptor (Homo sapiens).
Completion: > 9.22 µM (inactive)

Prompt: Send back Glucocorticoid receptor (Homo sapiens) Potency of `COc1ncc2nc(-c3ccccc3)c(=O)n(C)c2n1` only.
Completion: > 9.22 µM (inactive)

Prompt: State Potency on Glucocorticoid receptor (Homo sapiens). Entry: `Cn1c(=O)c(-c2cccs2)nc2cnc(N3CCNCC3)nc21`
Completion: > 9.22 µM (inactive)

Prompt: Look up Glucocorticoid receptor (Homo sapiens) data: Potency of `COc1ccccc1CNc1ccnc(-c2ccoc2)n1` , then report it.
Completion: > 46 µM (inactive)

Prompt: Report Potency on Glucocorticoid receptor (Homo sapiens) for this entry: `COc1ccc(-n2c(=O)c(-c3ccccc3)nc3cnc(N4CCN(C)CC4)nc32)cc1`
Completion: > 9.22 µM (inactive)

Prompt: System Glucocorticoid receptor (Homo sapiens). Read-out Potency. Item `COc1ncc2nc(-c3cccc(C#N)c3)c(=O)n(CCC#N)c2n1` . Report value.
Completion: > 9.22 µM (inactive)

Prompt: Please look at `NCCCCNS(=O)(=O)c1cccc2c(Cl)cccc12` and tell me its recorded Potency on Glucocorticoid receptor (Homo sapiens).
Completion: > 46 µM (inactive)

Prompt: Quote Potency with test system Glucocorticoid receptor (Homo sapiens) for `N#Cc1cccc(-c2cc(NCc3ccccc3)ncn2)c1`
Completion: > 46 µM (inactive)

Prompt: Write down measured Potency (Glucocorticoid receptor (Homo sapiens)) for this compound. `COCCn1c(=O)c(-c2ccc(F)cc2)nc2cnc(N3CCOCC3)nc21`
Completion: > 9.22 µM (inactive)

Prompt: Please indicate recorded Potency of `COCCn1c(=O)c(-c2cc(F)cc(F)c2)nc2cnc(N3CCNCC3)nc21` measured with Glucocorticoid receptor (Homo sapiens).
Completion: > 9.22 µM (inactive)

Prompt: # return Potency of `COc1ccc(-c2nc3cnc(Nc4ccccc4)nc3n(Cc3cccs3)c2=O)cc1` (system: Glucocorticoid receptor (Homo sapiens))
Completion: > 9.22 µM (inactive)

Prompt: Return reported Potency for target or system Glucocorticoid receptor (Homo sapiens), item `O=c1c(-c2cccs2)nc2cnc(N3CCNCC3)nc2n1CCc1ccccc1` .
Completion: > 9.22 µM (inactive)

Prompt: Find the measured Potency of `COc1ccc(-c2nc3cnc(N4CCN(C)CC4)nc3n(Cc3ccc(F)cc3)c2=O)cc1` with Glucocorticoid receptor (Homo sapiens) as test system.
Completion: > 9.22 µM (inactive)

Prompt: Tell me Potency of `CN1CCN(c2ncc3nc(-c4cc(F)cc(F)c4)c(=O)n(-c4ccccc4)c3n2)CC1` when tested on Glucocorticoid receptor (Homo sapiens).
Completion: > 9.22 µM (inactive)
